Values were extracted from ChEMBL document CHEMBL1201862.

# System: SW-620
# method-description: NCI tumour cell line growth inhibition, 48 h
Active and inactive are the calls of the source. No stated cut-off is given here; in the data, active = GI50 up to about 1.1 µM and inactive = higher.
Classes to choose from: active, inactive

> print(dat)
                                   molecule  assigned.class
1  CCCCCCCCCCCCCC(=O)O[C@H]1CC[C@H](NC(=O)[C@H](OC)[C@H](O)[C@@H](O)[C@H](O)/C=C/C(C)C)C(=O)NC1 [BENGAMIDE A]          active
2  C=C1C(=O)O[C@@H]2[C@@H]3O[C@@H](C[C@@H]13)[C@](C)(O)CC/C=C(\C)CCC[C@@H]2C        inactive
3  CC(=O)N(C(C)=O)n1c(Cc2ccc(Cl)cc2)n[nH]c1=O        inactive
4  COc1ccc2c(c1)[n+]([O-])c(-c1ccc(C)cc1)c(N)[n+]2[O-]        inactive
5  CC(C)(Oc1ccc(/C=C/C(=O)c2ccccc2)cc1)C(=O)Nc1c(Cl)cccc1Cl        inactive
6        CN(C)CCOc1cccc2c1C(=O)c1ccccc1C2=O        inactive

Which outcome did this test record for the molecule O=C1c2ccccc2-c2oc(=O)c3ccccc3c21 ? inactive

Which outcome did this test record for the molecule Oc1cc(O)cc(/C=C/c2ccc(O)c(O)c2)c1 ? inactive

Which outcome did this test record for the molecule O=C1C2C=CC(C2)C(c2ccc(O)cc2)N1O (centres undefined) ? inactive
